# SYSTEM_TESTED: Proteinase-activated receptor 2 (Homo sapiens) (UniProt P55085)
# Sequence (P55085 whole entry): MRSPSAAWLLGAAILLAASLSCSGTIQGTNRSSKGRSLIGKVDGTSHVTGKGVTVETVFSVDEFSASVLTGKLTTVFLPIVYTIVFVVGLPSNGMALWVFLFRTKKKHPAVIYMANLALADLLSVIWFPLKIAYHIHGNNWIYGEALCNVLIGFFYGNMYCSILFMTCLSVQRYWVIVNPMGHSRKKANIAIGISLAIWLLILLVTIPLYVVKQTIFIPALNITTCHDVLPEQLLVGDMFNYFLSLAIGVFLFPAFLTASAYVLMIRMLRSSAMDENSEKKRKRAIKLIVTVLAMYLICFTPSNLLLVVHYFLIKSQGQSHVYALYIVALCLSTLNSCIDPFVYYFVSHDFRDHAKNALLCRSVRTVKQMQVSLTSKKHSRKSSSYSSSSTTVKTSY
# TEST_SUMMARY: Inhibition of PAR2-mediated TNFalpha and SLIGKV-NH2-induced interleukin-8 production in normal human epidermal keratinocytes at 10 uM by ELISA
Activity calls are given as the source filed them. The calls are words filed in the database; no cut-off is given here.
Please reply with one of these outcomes: y (active), n (inactive)

Solved entries:
CC[C@H]1OC(=O)[C@H](C)[C@@H](O[C@H]2C[C@@](C)(OC)[C@@H](O)[C@H](C)O2)[C@H](C)[C@@H](O[C@@H]2O[C@H](C)C[C@H](N(C)C)[C@H]2O)[C@](C)(OC)C[C@@H](C)C(=O)[C@H](C)[C@@H](O)[C@]1(C)O
n
CN(C)c1ccc(O)c2c1C[C@H]1C[C@H]3[C@H](N(C)C)C(O)=C(C(N)=O)C(=O)[C@@]3(O)C(O)=C1C2=O
y
C[C@H]1c2cccc(O)c2C(=O)C2=C(O)[C@]3(O)C(=O)C(C(N)=O)=C(O)[C@@H](N(C)C)[C@@H]3[C@@H](O)[C@@H]21.O
y
CC[C@H]1OC(=O)[C@H](C)[C@@H](O[C@H]2C[C@@](C)(OC)[C@@H](O)[C@H](C)O2)[C@H](C)[C@@H](O[C@@H]2O[C@H](C)C[C@H](N(C)C)[C@H]2O)[C@](C)(O)C[C@@H](C)/C(=N\OCOCCOC)[C@H](C)[C@@H](O)[C@]1(C)O
n

Now examine the next entry.
Req: Any idea what this test logged for `CN(C)[C@@H]1C(O)=C(C(N)=O)C(=O)[C@@]2(O)C(O)=C3C(=O)c4c(O)cccc4[C@@](C)(O)[C@H]3C[C@@H]12` ?
Resp: y

These entries and their values trace back to ChEMBL document CHEMBL1649195.
